Details: 313.15 K; 100 kPa; Liquid; Vibrating tube method
measurement.label: mass density (kg/m3)
Note: unit kg/m3 is implicit; provide only the numeric part.

> print(dat)
                                   compound  assay.value
1  CCCCCCCCCCCCCC(=O)OC [methyl tetradecanoate]       851.94
2       CCCCCCCCCC(=O)OC [methyl decanoate]       855.85
3                                 CC1CCCCC1       751.98

Query compound follows.
Which mass density value is on record for CCCCCCCCCCCC(=O)OC [methyl dodecanoate] ?
853.61

* * *

Conditions: 308.15 K; 100 kPa; Liquid; Vibrating tube method
Entries annotated with measured mass density
Note: unit kg/m3 is implicit; provide only the numeric part.

> print(dat)
                        compound  measurement.label  endpoint.unit  assay.value
1  CC1CCCCC1 [methylcyclohexane]       mass density          kg/m3       756.35

Which mass density value is on record for CCCCCCCCCCCC(=O)OC [methyl dodecanoate] ?
857.53

Which mass density value is on record for CCCCCCCCCCCCCC(=O)OC [methyl tetradecanoate] ?
855.74

Which mass density value is on record for CCCCCCCCCC(=O)OC [methyl decanoate] ?
859.96

* * *

Entries annotated with measured viscosity
Conditions: 308.15 K; 100 kPa; Liquid; Falling or rolling sphere viscometry
Note: unit mPa·s is implicit; provide only the numeric part.

> print(dat)
    compound  measurement.label  assay.value
1  CC1CCCCC1          viscosity        0.599

Which viscosity value is on record for CCCCCCCCCCCC(=O)OC [methyl dodecanoate] ?
2.263

Which viscosity value is on record for CCCCCCCCCCCCCC(=O)OC [methyl tetradecanoate] ?
3.093

Which viscosity value is on record for CCCCCCCCCC(=O)OC [methyl decanoate] ?
1.588

* * *

Conditions: 293.15 K; 100 kPa; Liquid; Vibrating tube method
measurement.label: mass density (kg/m3)
Note: unit kg/m3 is implicit; provide only the numeric part.

The following molecules have reported results that may help.
> print(dat)
                                  molecule  measurement.label  assay.value
1            CC1CCCCC1 [methylcyclohexane]       mass density       769.38
2      CCCCCCCCCC(=O)OC [methyl decanoate]       mass density       872.25
3  CCCCCCCCCCCC(=O)OC [methyl dodecanoate]       mass density        869.3

Query molecule follows.
Which mass density value is on record for CCCCCCCCCCCCCC(=O)OC [methyl tetradecanoate] ?
867.17

* * *

Conditions: 298.15 K; 100 kPa; Liquid; Falling or rolling sphere viscometry
measurement.label: viscosity (mPa·s)
Note: unit mPa·s is implicit; provide only the numeric part.

The following molecules have reported results that may help.
> print(dat)
                                   molecule  measurement.label  endpoint.unit  assay.value
1  CCCCCCCCCCCCCC(=O)OC [methyl tetradecanoate]          viscosity          mPa·s        3.979
2   CCCCCCCCCCCC(=O)OC [methyl dodecanoate]          viscosity          mPa·s        2.792
3       CCCCCCCCCC(=O)OC [methyl decanoate]          viscosity          mPa·s        1.909

Query molecule follows.
Which viscosity value is on record for CC1CCCCC1 [methylcyclohexane] ?
0.681
